Each entry below carries its reported log10 LC30.
# MEASUREMENT DESCRIPTION: Effect on hemolysis in red blood cells
# Type: ADME, cell-based, Erythrocyte
Starred links: 1 amine or outer side, 2 acyl side, 3 side chain; linkers in the order of their positions; H or OH if unused. Positions of bridges follow the written chain, without caps; N, C: chain ends. Non-standard residues stand in square brackets, D forms with d. Residues, ends and D or L forms follow the SMILES beside them. *: point of attachment. hTyr(3S-OH,4S-OH,3'-OSO3H) = N[C@H](C(=O)O)[C@H](O)[C@@H](O)c1ccc(O)c(OS(=O)(=O)O)c1; Orn(4R-OH,5R-OH) = O=C([C@H](C[C@@H](O)[C@@H](O)N[*:3])N[*:1])[*:2]; Pro(3S-OH,4S-Me) = C[C@H]1CN[C@H](C(=O)O)[C@H]1O; X1 = CCCCOc1ccc(-c2ccc(-c3ccc(C(=O)*)cc3)cc2)cc1; Gln(3R-OH) = NC(=O)C[C@@H](O)[C@H](N)C(=O)O; Hyp = O=C(O)[C@@H]1C[C@@H](O)CN1
ENDPOINT NAME: log10 LC30 (log10 of the value in µg/mL)

- COMPOUND: "CCCCCCCCCCCCOc1ccc2cc(C(=O)N[C@@H]3C[C@@H](O)[C@@H](O)NC(=O)[C@@H]4[C@@H](O)[C@@H](C)CN4C(=O)[C@H]([C@H](O)CC(N)=O)NC(=O)[C@H]([C@H](O)[C@@H](O)c4ccc(O)c(OS(=O)(=O)[O-])c4)NC(=O)[C@@H]4C[C@@H](O)CN4C(=O)C([C@@H](C)O)NC3=O)ccc2c1.[Na+] (some centres not stated)"
  log10 LC30: 2.61
- COMPOUND: "CCCCCCCCCCOc1ccc(C(=O)N[C@@H]2C[C@@H](O)[C@@H](O)NC(=O)[C@@H]3[C@@H](O)[C@@H](C)CN3C(=O)[C@H]([C@H](O)CC(N)=O)NC(=O)[C@H]([C@H](O)[C@@H](O)c3ccc(O)c(OS(=O)(=O)[O-])c3)NC(=O)[C@@H]3C[C@@H](O)CN3C(=O)C([C@@H](C)O)NC2=O)cc1.[Na+] (some centres not stated)"
  log10 LC30: 4.00
- COMPOUND: "CCCCCCCCCCOc1ccc2cc(C(=O)N[C@@H]3C[C@@H](O)[C@@H](O)NC(=O)[C@@H]4[C@@H](O)[C@@H](C)CN4C(=O)[C@H]([C@H](O)CC(N)=O)NC(=O)[C@H]([C@H](O)[C@@H](O)c4ccc(O)c(OS(=O)(=O)[O-])c4)NC(=O)[C@@H]4C[C@@H](O)CN4C(=O)C([C@@H](C)O)NC3=O)ccc2c1.[Na+] (some centres not stated)"
  log10 LC30: 2.88
- COMPOUND: "CCCCCOc1ccc(-c2ccc(/C=C/C(=O)N[C@@H]3C[C@@H](O)[C@@H](O)NC(=O)[C@@H]4[C@@H](O)[C@@H](C)CN4C(=O)[C@H]([C@H](O)CC(N)=O)NC(=O)[C@H]([C@H](O)[C@@H](O)c4ccc(O)c(OS(=O)(=O)[O-])c4)NC(=O)[C@@H]4C[C@@H](O)CN4C(=O)C([C@@H](C)O)NC3=O)cc2)cc1.[Na+] (some centres not stated)"
  log10 LC30: 3.60
- COMPOUND: "CCCCOc1ccc(-c2ccc(-c3ccc(C(=O)N[C@H]4C[C@@H](O)[C@@H](O)NC(=O)[C@@H]5[C@@H](O)[C@@H](C)CN5C(=O)[C@H]([C@H](O)CC(N)=O)NC(=O)[C@H]([C@H](O)[C@@H](O)c5ccc(O)c(OS(=O)(=O)O)c5)NC(=O)[C@@H]5C[C@@H](O)CN5C(=O)[C@H]([C@@H](C)O)NC4=O)cc3)cc2)cc1 (X1-[Orn(4R-OH,5R-OH)]T[Hyp][hTyr(3S-OH,4S-OH,3'-OSO3H)][Gln(3R-OH)][Pro(3S-OH,4S-Me)]; lactam 1-C)"
  log10 LC30: 2.57
